Protocol description: GAL4-VP16 reporter modulators, confirmation, counter-screen for NR2E3 agonist project, cell-based, luminescence, CHO-S, high throughput (AID 624379);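 note: luciferase from a UAS reporter driven by GAL4-VP16 transactivation; higher means less reporter light so more repression of VP16 activity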
Condition notes: CHO-S GAL4-VP16 luciferase reporter, at 3.98 µM, stronger effect = higher value
The list shows a part of the results.
Label scheme, based on inhibition: low: < 30%; middle: ≥ 30% and < 60%; high: ≥ 60%

Record excerpt, results attached:
CCC1(C)Cc2c(sc3[nH]c(=S)n(Cc4ccccc4)c(=O)c23)CO1 (configuration not stated) = middle
COc1ccc(CNS(=O)(=O)c2ccc(-c3cnc(C4CC4)o3)cc2)cc1 = middle
CN(c1ccc2nc3ccccc3c(=O)n2n1)C1CCCCC1 = low
c1ccc(C(=NNc2nc3ccccc3s2)c2ccccn2)cc1 = low

Prompt: Field: class (inhibition) — entry: Cc1[nH]n(-c2cccc(Cl)c2)c(=O)c1-c1ccc(Cl)cc1
Completion: high

Prompt: Field: class (inhibition) — entry: COc1ccc(CNc2ncnc3ccccc23)cc1
Completion: high

Prompt: Field: class (inhibition) — entry: COc1ccc(C(=O)NNC(=S)NC(=O)c2ccccc2[N+](=O)[O-])cc1
Completion: low

Prompt: Field: class (inhibition) — entry: Cc1cccc(NS(=O)(=O)c2ccc(-c3cnc(C4CC4)o3)cc2)c1
Completion: middle

Prompt: Field: class (inhibition) — entry: O=C(CCC(=O)N1CCN(S(=O)(=O)c2ccc(Cl)cc2)CC1)NCc1cccc(C(F)(F)F)c1
Completion: high

Prompt: Field: class (inhibition) — entry: CCOc1ccc(S(=O)(=O)N2CCCCCC2)c2ccccc12
Completion: low

Prompt: Field: class (inhibition) — entry: Cc1ccc(NS(=O)(=O)c2ccc(-c3coc(C)n3)cc2)c(C)c1
Completion: middle

Prompt: Field: class (inhibition) — entry: OCCCNc1nccc(-c2cc(Nc3cccc(Cl)c3)ncn2)n1
Completion: high

Prompt: Field: class (inhibition) — entry: C#Cc1ccc(NC(=O)C2(C)CCN2C(=O)Cc2ccc(-c3ccccc3)cc2)cc1 (configuration not stated)
Completion: middle

Prompt: Field: class (inhibition) — entry: CCCC1CCC(=NNC(=S)NCCc2ccccc2)CC1 (configuration not stated)
Completion: low

Prompt: Field: class (inhibition) — entry: CC1CCCCN1S(=O)(=O)c1ccc(C(=O)Nc2nnc(-c3cccs3)o2)cc1 (configuration not stated)
Completion: middle

Prompt: Field: class (inhibition) — entry: CCNC(=O)CCc1nc(-c2ccc(C(C)(C)C)cc2)no1
Completion: high

Prompt: Field: class (inhibition) — entry: CCCCCc1c(-c2ccc(OC)c(OC)c2)ncn1CCc1ccccc1OC
Completion: middle

Prompt: Field: class (inhibition) — entry: Cc1ccc(C)c(S(=O)(=O)N2CCN(c3ncnc4sccc34)CC2)c1
Completion: high

Prompt: Field: class (inhibition) — entry: Cc1cc2nc(-c3ccc(Cl)cc3)c(Cc3cccc(F)c3)n2c(C)c1Br
Completion: low

---

Protocol description: VP16 transactivation inhibitors, counter-screen for SRC1 inhibitor project, cell-based, luminescence, high throughput (AID 588824)
Condition notes: cell-based VP16 transactivation luciferase luminescence; at 3.6 µM
Activity calls are given as the source filed them. No stated cut-off is given here; in the data, active means inhibition above about 25%; inactive means the rest.
// one of active, inactive, no free text

COc1cc(OC)c(OC)cc1/C=C1\CC(C)C/C(=C\c2cc(OC)c(OC)cc2OC)C1=O (stereo unspecified) = inactive
Cc1cccc(C)c1NC(=O)C1(C)CCC(=O)N1c1cc(C(C)(C)C)nn1C (stereo unspecified) = inactive

Turning to the following compound.
Prompt: Record request — test call for COC(=O)C(C)NC(=O)C12CC3CC(C1)CC(c1ccc(C)cc1)(C3)C2 (stereo unspecified)
Completion: inactive
